System: SW48 (wt) cells
Experiment: Cell viability assay (CELLTITER-GLO), SW48 cells
Type: cell-based
Conditions: 3 days incubation, 2.5% fetal bovine serum, read-out: Inhibition of Cancerous Cells IC50 (μM) SW48 (wt)
parameterMeasured: IC50

Test system SW48 (wt) cells; read-out IC50; what value for Cc1nn2c(N3CCN(CCO)CC3)cc(-c3ccccc3)nc2c1-c1cccc(CCCCCN2CCN(C(=O)CNc3ccc4c(N5CCC(=O)NC5=O)nn(C)c4c3)CC2)c1 ?
> 10 µM

====

System: SW48 (wt) cells
Test: Cell viability assay (CELLTITER-GLO), SW48 cells
Type: cell-based
Details: Homo sapiens, 72 h, 3 days incubation, 2.5% fetal bovine serum, read-out: Inhibition of Cancerous Cells IC50 (μM) SW48 (wt)
parameterMeasured: IC50
// unit must come after the numeric part

Illustrative cases are given below, each with its answer.
# lookup: IC50 of Cc1nn2c(N3CCN(CCO)CC3)cc(-c3cccc(CCCN4CCN(C(=O)CNc5ccc(C6CCC(=O)NC6=O)cc5)CC4)c3)nc2c1-c1ccccc1 (centres unmarked) [Compound B1]
1.1 µM

Another: Cc1nn2c(N3CCN(CCO)CC3)cc(-c3ccccc3)nc2c1-c1cccc(CCCCCN2CCN(C(=O)COc3ccc(N4CCC(=O)NC4=O)cc3)CC2)c1 [Compound C7]
0.7 µM

Another: Cc1nn2c(N3CCN(CCO)CC3)cc(-c3cccc(CCCCCCCN4CCC(Nc5cccc(NC6CCC(=O)NC6=O)c5)CC4)c3)nc2c1-c1ccccc1 (centres unmarked) [Compound A1]
0.54 µM

Another: Cc1nn2c(N3CCN(CCO)CC3)cc(-c3ccccc3)nc2c1-c1cccc(CCCN2CCN(C(=O)CNc3cccc4c(C5CCC(=O)NC5=O)nn(C)c34)CC2)c1 (centres unmarked) [Compound D10]
1.3 µM

Another: Cc1nn2c(N3CCN(CCO)CC3)cc(-c3cccc(CCCCCN4CCN(C(=O)CNc5ccc6c(C7CCC(=O)NC7=O)nn(C)c6c5)CC4)c3)nc2c1-c1ccccc1 (centres unmarked) [Compound D2]
0.52 µM

Please state IC50 for every compound in the list that follows.
1. Cc1nn2c(N3CCN(CCO)CC3)cc(-c3ccccc3)nc2c1-c1cccc(CCCCCCCN2CCN(C(=O)CNc3cccc4c(C5CCC(=O)NC5=O)nn(C)c34)CC2)c1 (centres unmarked) [Compound D12]
2. Cc1nn2c(N3CCN(CCO)CC3)cc(-c3cccc(CCCCCN4CCN(C(=O)CNc5cccc6c(C7CCC(=O)NC7=O)nn(C)c56)CC4)c3)nc2c1-c1ccccc1 (centres unmarked) [Compound D5]
3. Cc1nn2c(N3CCN(CCO)CC3)cc(-c3ccccc3)nc2c1-c1cccc(CCCCCCCCCN2CCN(C(=O)COc3ccc(N4CCC(=O)NC4=O)cc3)CC2)c1 [Compound C9]

0.96 µM
0.5 µM
0.48 µM

Please state IC50 for every compound in the list that follows.
1. Cc1nn2c(N3CCN(CCO)CC3)cc(-c3cccc(CCCN4CCN(C(=O)CNc5cccc6c(C7CCC(=O)NC7=O)nn(C)c56)CC4)c3)nc2c1-c1ccccc1 (centres unmarked) [Compound D4]
2. Cc1nn2c(N3CCN(CCO)CC3)cc(-c3ccccc3)nc2c1-c1cccc(CCCCCCCN2CCN(C(=O)CNc3ccc4c(C5CCC(=O)NC5=O)nn(C)c4c3)CC2)c1 (centres unmarked) [Compound D9]

0.94 µM
0.72 µM

# lookup: IC50 of Cc1nn2c(N3CCN(CCO)CC3)cc(-c3ccccc3)nc2c1-c1cccc(CCCCCCCN2CCN(C(=O)COc3cccc(N4CCC(=O)NC4=O)c3)CC2)c1 [Compound C11]
1.1 µM

====

Tested on: SW48 (wt) cells
Experiment: Cell viability assay (CELLTITER-GLO), SW48 cells
Type: cell-based
Conditions: Homo sapiens, 72 h, 3 days incubation, 2.5% fetal bovine serum, read-out: Inhibition of Cancerous Cells IC50 (μM) SW48 (wt)
parameterMeasured: IC50 (µM)
One number for each entry, in µM.

Illustrative cases are given below, each with its answer.
# lookup: IC50 of Cc1nn2c(N3CCN(CCO)CC3)cc(-c3ccccc3)nc2c1-c1cccc(CCCN2CCN(C(=O)CNc3ccc4c(C5CCC(=O)NC5=O)nn(C)c4c3)CC2)c1 (centres unmarked) [Compound D7]
1.2

Another: Cc1nn2c(N3CCN(CCO)CC3)cc(-c3ccccc3)nc2c1-c1cccc(CCCCCN2CCN(C(=O)CNc3cccc4c(C5CCC(=O)NC5=O)nn(C)c34)CC2)c1 (centres unmarked) [Compound D11]
0.84

Another: Cc1nn2c(N3CCN(CCO)CC3)cc(-c3cccc(CCCN4CCN(C(=O)CNc5cccc(C6CCC(=O)NC6=O)c5)CC4)c3)nc2c1-c1ccccc1 (centres unmarked) [Compound B4]
1.4

Please state IC50 for every compound in the list that follows.
1. Cc1nn2c(N3CCN(CCO)CC3)cc(-c3cccc(CCCCCN4CCN(C(=O)CNc5ccc(C6CCC(=O)NC6=O)cc5)CC4)c3)nc2c1-c1ccccc1 (centres unmarked) [Compound B2]
2. Cc1nn2c(N3CCN(CCO)CC3)cc(-c3cccc(CCCCCN4CCN(C(=O)CNc5cccc(C6CCC(=O)NC6=O)c5)CC4)c3)nc2c1-c1ccccc1 (centres unmarked) [Compound B5]

0.49
0.45

====

Tested on: H358 (G12C) cells
Assay: Cell viability assay (CELLTITER-GLO), H358 cells
Assay type: cell-based
Settings: Homo sapiens, NCI-H358, 72 h, 3 days incubation, 2.5% fetal bovine serum, read-out: Inhibition of Cancerous Cells IC50 (μM) H358 (G12C)
parameterMeasured: IC50 (µM)
Answers are plain numbers, in µM.

Test system H358 (G12C) cells; read-out IC50; what value for Cc1nn2c(N3CCN(CCO)CC3)cc(-c3ccccc3)nc2c1-c1cccc(CCCCCCCN2CCN(C(=O)COc3cccc(N4CCC(=O)NC4=O)c3)CC2)c1 ?
1.2

Another: Cc1nn2c(N3CCN(CCO)CC3)cc(-c3ccccc3)nc2c1-c1cccc(CCCN2CCN(C(=O)CNc3ccc4c(C5CCC(=O)NC5=O)nn(C)c4c3)CC2)c1 (stereo not shown)
3.3

Another: Cc1nn2c(N3CCN(CCO)CC3)cc(-c3cccc(CCCCCN4CCN(C(=O)CNc5ccc(C6CCC(=O)NC6=O)cc5)CC4)c3)nc2c1-c1ccccc1 (stereo not shown)
0.71

Please state IC50 for every compound in the list that follows.
1. Cc1nn2c(N3CCN(CCO)CC3)cc(-c3ccccc3)nc2c1-c1cccc(CCCCCN2CCN(C(=O)CNc3cccc4c(C5CCC(=O)NC5=O)nn(C)c34)CC2)c1 (stereo not shown)
2. Cc1nn2c(N3CCN(CCO)CC3)cc(-c3ccccc3)nc2c1-c1cccc(CCCCCCCN2CCN(C(=O)CNc3cccc4c(C5CCC(=O)NC5=O)nn(C)c34)CC2)c1 (stereo not shown)
3. Cc1nn2c(N3CCN(CCO)CC3)cc(-c3cccc(CCCCCN4CCN(C(=O)CNc5cccc(C6CCC(=O)NC6=O)c5)CC4)c3)nc2c1-c1ccccc1 (stereo not shown)
4. Cc1nn2c(N3CCN(CCO)CC3)cc(-c3ccccc3)nc2c1-c1cccc(CCCN2CCN(C(=O)CNc3cccc4c(C5CCC(=O)NC5=O)nn(C)c34)CC2)c1 (stereo not shown)

1: 1.2; 2: 1.2; 3: 0.52; 4: 2.4

====

Tested on: H358 (G12C) cells
Assay: Cell viability assay (CELLTITER-GLO), H358 cells
Assay type: cell-based
Conditions: Homo sapiens, NCI-H358, 72 h, 3 days incubation, 2.5% fetal bovine serum, read-out: Inhibition of Cancerous Cells IC50 (μM) H358 (G12C)
Experimental: H358, H23, SW48, and AsPC-1 cells were cultured in RPMI 1640 media supplemented with 10% fetal bovine serum, streptomycin, and penicillin. Lovo and SW480 cells were cultured in DMEM media supplemented with 10% fetal bovine serum, streptomycin, and penicillin. The cell lines were plated in their respective medium supplemented with 2.5% fetal bovine serum, streptomycin, and penicillin. […] After a 10 min incubation with shaking, luminescence was measured using an ENVISION® multimode plate reader. […]
Record form. Attribute: IC50. Fill in for each entry.
Give bare numbers, in µM.

Please state IC50 for every compound in the list that follows.
1. Cc1nn2c(N3CCN(CCO)CC3)cc(-c3ccccc3)nc2c1-c1cccc(CCCCCN2CCN(C(=O)CNc3ccc4c(C5CCC(=O)NC5=O)nn(C)c4c3)CC2)c1 (stereo not drawn)
2. Cc1nn2c(N3CCN(CCO)CC3)cc(-c3cccc(CCCCCCCN4CCC(Nc5cccc(NC6CCC(=O)NC6=O)c5)CC4)c3)nc2c1-c1ccccc1 (stereo not drawn)
3. Cc1nn2c(N3CCN(CCO)CC3)cc(-c3cccc(CCCCCN4CCN(C(=O)CNc5cccc6c(C7CCC(=O)NC7=O)nn(C)c56)CC4)c3)nc2c1-c1ccccc1 (stereo not drawn)

1.2
0.9
0.49
